# System: HepG2
# assay.explanation: MTT cell viability assay, HepG2
# Format: cell-based
# measurement.conditions: 72 h, mean ± SD, n = 3
pIC50: −log10 of the molar value.

| compound | pIC50 |
| --- | --- |
| COc1cc([C@@H]2c3cc4c(cc3[C@@H](O[C@@H]3O[C@@H]5CO[C@@H](C)O[C@H]5[C@H](O)[C@H]3O)[C@H]3COC(=O)[C@H]23)OCO4)cc(OC)c1O [ETP, reference compound] | 5.30 |

====

# System: HEK293
# assay.explanation: MTT cell viability assay, HEK293 normal kidney cells
# Assay type: cell-based, human
# measurement.conditions: MTT, 72 h, normal kidney cells, mean ± SD, n = 3

| compound | target.or.system | IC50 [nM] |
| --- | --- | --- |
| COc1cc([C@@H]2c3cc4c(cc3[C@@H](O[C@@H]3O[C@@H]5CO[C@@H](C)O[C@H]5[C@H](O)[C@H]3O)[C@H]3COC(=O)[C@H]23)OCO4)cc(OC)c1O [ETP, reference compound] | HEK293 | 1910 |
